# measured-on: KRAS-G12V (Homo sapiens, UniProt P01116, G12V)
# Construct: N-terminal biotin-acceptor peptide […]
# Sequence (P01116 with tags, fused parts or gaps isoform P01116-2 G12V): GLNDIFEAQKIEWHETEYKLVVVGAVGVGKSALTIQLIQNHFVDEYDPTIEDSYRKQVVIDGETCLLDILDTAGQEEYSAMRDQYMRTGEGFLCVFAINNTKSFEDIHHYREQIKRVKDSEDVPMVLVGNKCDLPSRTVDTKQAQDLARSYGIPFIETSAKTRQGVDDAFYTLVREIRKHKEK
# assay-text: SOS-catalyzed nucleotide exchange assay (Procedure A, TR-FRET)
# Type: biochemical
# reported-conditions: 60 min preincubation, SOS + GTP, read-out: KRAS G12V GNE IC50
endpoint-name: pIC50
Numbers only, as −log10 of the molar value.

>>> reported("N#Cc1c(N)sc2c(F)ccc(-c3cc4nc(OC[C@@]56CCCN5C[C@H](F)C6)nc(N5CCCOCC5)c4nc3C(F)(F)F)c12 [Ex. 46]")
8.05
>>> reported("CN(C)C[C@@]1(COc2nc(N3CCCOCC3)c3cc(Cl)c(-c4ccc(F)c5sc(N)c(C#N)c45)c(F)c3n2)CC1(F)F [Ex. 24]")
8.02
>>> reported("CC1(F)COCCN(c2nc(OC[C@@]34CCCN3C[C@H](F)C4)nc3c(F)c(-c4ccc(F)c5sc(N)c(C#N)c45)c(Cl)cc23)C1 (stereo partly drawn) [compound 13]")
7.98
>>> reported("N#Cc1c(N)sc2c(F)ccc(-c3c(Cl)cc4c(N5CCOCC(F)(F)C5)nc(OC[C@@]56CCCN5C[C@H](F)C6)nc4c3F)c12 [compound 12]")
7.94
>>> reported("C[C@H]1CCOCCN1c1nc(OC[C@@]23CCCN2C[C@H](F)C3)nc2c(F)c(-c3ccc(F)c4sc(N)c(C#N)c34)ccc12 [compound 49]")
6.80

# input for lookup
Query: // Input: N#Cc1c(N)sc2c(F)ccc(-c3c(C(F)(F)F)cc4c(N5CCC6(C5)CC6(F)F)nc(OC[C@@]56CCCN5C[C@H](F)C6)nc4c3F)c12 (stereo partly drawn) [compound 53] . Output its pIC50 only.
Reply: 7.07
